test system: Acinetobacter baumanii/haemolyticus: Multidrug-resistant clinical isolate (AB-3167); assay: MIC determination (CLSI), AB-3167; format: cell-based; settings: Acinetobacter baumanii/haemolyticus multidrug-resistant clinical isolate AB-3167

>  <COMPOUND>
CC(CCc1ccc(-c2ccc(C#N)c(C#N)c2)cc1)(C(=O)NO)S(C)(=O)=O (stereo not shown)

>  <AB-3167 MIC>
≧64 mg/L

$$$$
>  <COMPOUND>
CSc1ccccc1-c1ccc(CCC(C)(C(=O)NO)S(C)(=O)=O)cc1 (stereo not shown)

>  <AB-3167 MIC>
≧64 mg/L

$$$$
>  <COMPOUND>
Cc1cccc(-c2ccc(CCC(C)(C(=O)NO)S(C)(=O)=O)cc2)c1 (racemic)

>  <AB-3167 MIC>
8 µg/mL

$$$$
>  <COMPOUND>
CC(=O)c1ccc(-c2ccc(CCC(C)(C(=O)NO)S(C)(=O)=O)c(F)c2)cn1 (stereo not shown)

>  <AB-3167 MIC>
≧64 mg/L

$$$$

---

system: Klebsiella pneumoniae: Ciprofloxacin-resistant isolate, ESBL, clinical isolate (KP-3700); assay: MIC determination (CLSI), KP-3700; format: cell-based
Each entry below carries its reported KP-3700 MIC.
Express it in µg/mL; write the number only.

Would you please look over these solved cases?
>  <COMPOUND>
CC(CCc1ccc(-c2ccc3c(c2)CCO3)cc1)(C(=O)NO)S(C)(=O)=O (racemic)

>  <KP-3700 MIC (µg/mL)>
4

$$$$
>  <COMPOUND>
CC(CCc1ccc(-c2ccc(C(=O)CO)cc2)cc1)(C(=O)NO)S(C)(=O)=O (stereo not drawn)

>  <KP-3700 MIC (µg/mL)>
4

$$$$

Tell me measured KP-3700 MIC for COc1ccc(-c2ccc(CCC(C)(C(=O)NO)S(C)(=O)=O)cc2)cc1F (racemic) please. 8

---

Each entry below carries its reported MIC.
system: Pseudomonas aeruginosa UI-18: Wild-type (PA-7); assay: MIC determination (CLSI), PA-7; format: cell-based; conditions: Pseudomonas aeruginosa; Table 3; read-out: PA-7 MIC
Express it in µg/mL; write the number only.

Would you please look over these solved cases?
>  <COMPOUND>
CC(CCc1ccc(OCC2CCOCC2)cc1)(C(=O)NO)S(C)(=O)=O (centres unmarked)

>  <MIC [µg/mL]>
32

$$$$
>  <COMPOUND>
Cc1cccc(COc2ccc(CCC(C)(C(=O)NO)S(C)(=O)=O)cc2)c1 (centres unmarked)

>  <MIC [µg/mL]>
4

$$$$
>  <COMPOUND>
CC(CCc1ccc(OCc2c(F)cccc2F)cc1)(C(=O)NO)S(C)(=O)=O (centres unmarked)

>  <MIC [µg/mL]>
2

$$$$
>  <COMPOUND>
Cc1cccnc1COc1ccc(CCC(C)(C(=O)NO)S(C)(=O)=O)cc1 (centres unmarked)

>  <MIC [µg/mL]>
16

$$$$

Now look at this one.
Tell me measured MIC for CC(CCc1ccc(OCc2ccc(Cl)cc2F)cc1)(C(=O)NO)S(C)(=O)=O (centres unmarked) please. 4

---

tested on: Pseudomonas aeruginosa UI-18: Wild-type (PA-7); experiment: MIC determination (CLSI), PA-7; type: cell-based; details: Pseudomonas aeruginosa; Table 3; read-out: PA-7 MIC
ENDPOINT_LABEL: MIC (µg/mL)
Express it in µg/mL; write the number only.

>  <COMPOUND>
CC(CCc1ccc(OCc2ccccc2C#N)cc1)(C(=O)NO)S(C)(=O)=O (centres unmarked) [Example 285]

>  <MIC (µg/mL)>
32

$$$$

Now look at this one.
Tell me measured MIC for CC(CCc1ccc(OCc2ccc(F)cc2F)cc1)(C(=O)NO)S(C)(=O)=O (centres unmarked) [Example 294] please. 4

Entry source: patent US8853258B2
